Entry source: patent US10351539B2

assay: Biodistribution in healthy and SRC bearing rats at 1 h after i.v. injection of radiolabelled compounds; format: in vivo; conditions: healthy and SRC bearing rats, mean ± SD (n = 3)
// returns -1 unless Bladder is strictly below 30 % ID/g, in which case 1

INSERT INTO measurements (compound, category_label) VALUES
  ('CC[N+](CC)(CC)CCCN1CCCNCCNCCCNCC1.[64Cu+2] [^64Cu-5]', -1),
  ('CC[N+](CC)(CC)CCCN1CCCN2CCN(CCCN(CC(=O)O)CC1)CC2.[64Cu+2] [^64Cu-14]', 1),
  ('CC[N+](CC)(CC)CCCN1CCCN(Cc2ccccn2)CCNCCCN(Cc2ccccn2)CC1.[64Cu+2] [^64Cu-30]', 1),
  ('CC[N+](CC)(CC)CCCN1CCNCCNCCNCCNCC1.[64Cu+2] [^64Cu-2]', -1),
  ('CC[N+](CC)(CC)CCCN1CCCN2CCN(CCCN(CC(=O)OC(C)(C)C)CC1)CC2.[64Cu+2] [^64Cu-13]', 1);
